Biological target: T1, G9a and GLP (Homo sapiens, UniProt Q96KQ7+Q9H9B1)
T1 sequence (Q96KQ7 2-1210 limits assumed): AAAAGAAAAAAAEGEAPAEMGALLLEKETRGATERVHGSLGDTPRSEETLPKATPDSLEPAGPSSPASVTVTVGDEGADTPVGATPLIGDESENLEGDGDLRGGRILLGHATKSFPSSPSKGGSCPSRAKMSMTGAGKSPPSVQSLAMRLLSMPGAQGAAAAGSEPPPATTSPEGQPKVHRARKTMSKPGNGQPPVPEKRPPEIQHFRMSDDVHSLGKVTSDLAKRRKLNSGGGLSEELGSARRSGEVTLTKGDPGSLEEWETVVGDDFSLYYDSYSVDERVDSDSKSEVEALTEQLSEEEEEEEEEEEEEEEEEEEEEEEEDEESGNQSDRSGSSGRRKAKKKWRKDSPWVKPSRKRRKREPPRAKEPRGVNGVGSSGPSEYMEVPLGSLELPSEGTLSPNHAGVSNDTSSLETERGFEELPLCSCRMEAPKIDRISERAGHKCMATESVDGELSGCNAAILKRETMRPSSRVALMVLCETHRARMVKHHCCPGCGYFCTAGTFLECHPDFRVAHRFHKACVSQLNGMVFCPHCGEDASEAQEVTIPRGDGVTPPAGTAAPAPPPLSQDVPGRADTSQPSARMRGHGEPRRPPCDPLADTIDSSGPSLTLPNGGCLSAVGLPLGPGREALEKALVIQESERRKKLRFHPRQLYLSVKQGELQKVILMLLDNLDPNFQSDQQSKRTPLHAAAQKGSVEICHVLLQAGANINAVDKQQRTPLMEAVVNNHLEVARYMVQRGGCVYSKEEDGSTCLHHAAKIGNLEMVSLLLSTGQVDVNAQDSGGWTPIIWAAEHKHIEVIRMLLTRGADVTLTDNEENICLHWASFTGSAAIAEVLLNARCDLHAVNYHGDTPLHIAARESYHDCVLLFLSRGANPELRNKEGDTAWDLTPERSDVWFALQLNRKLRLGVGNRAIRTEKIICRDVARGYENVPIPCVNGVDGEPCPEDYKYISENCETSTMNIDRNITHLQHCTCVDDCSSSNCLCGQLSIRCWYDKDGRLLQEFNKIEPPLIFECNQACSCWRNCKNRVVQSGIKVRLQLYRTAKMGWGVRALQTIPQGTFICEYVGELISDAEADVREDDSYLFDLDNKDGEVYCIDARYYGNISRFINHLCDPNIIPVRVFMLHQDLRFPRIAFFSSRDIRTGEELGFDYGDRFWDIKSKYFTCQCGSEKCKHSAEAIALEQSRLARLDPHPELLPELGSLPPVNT
T1 sequence (Q9H9B1 2-1298 limits assumed): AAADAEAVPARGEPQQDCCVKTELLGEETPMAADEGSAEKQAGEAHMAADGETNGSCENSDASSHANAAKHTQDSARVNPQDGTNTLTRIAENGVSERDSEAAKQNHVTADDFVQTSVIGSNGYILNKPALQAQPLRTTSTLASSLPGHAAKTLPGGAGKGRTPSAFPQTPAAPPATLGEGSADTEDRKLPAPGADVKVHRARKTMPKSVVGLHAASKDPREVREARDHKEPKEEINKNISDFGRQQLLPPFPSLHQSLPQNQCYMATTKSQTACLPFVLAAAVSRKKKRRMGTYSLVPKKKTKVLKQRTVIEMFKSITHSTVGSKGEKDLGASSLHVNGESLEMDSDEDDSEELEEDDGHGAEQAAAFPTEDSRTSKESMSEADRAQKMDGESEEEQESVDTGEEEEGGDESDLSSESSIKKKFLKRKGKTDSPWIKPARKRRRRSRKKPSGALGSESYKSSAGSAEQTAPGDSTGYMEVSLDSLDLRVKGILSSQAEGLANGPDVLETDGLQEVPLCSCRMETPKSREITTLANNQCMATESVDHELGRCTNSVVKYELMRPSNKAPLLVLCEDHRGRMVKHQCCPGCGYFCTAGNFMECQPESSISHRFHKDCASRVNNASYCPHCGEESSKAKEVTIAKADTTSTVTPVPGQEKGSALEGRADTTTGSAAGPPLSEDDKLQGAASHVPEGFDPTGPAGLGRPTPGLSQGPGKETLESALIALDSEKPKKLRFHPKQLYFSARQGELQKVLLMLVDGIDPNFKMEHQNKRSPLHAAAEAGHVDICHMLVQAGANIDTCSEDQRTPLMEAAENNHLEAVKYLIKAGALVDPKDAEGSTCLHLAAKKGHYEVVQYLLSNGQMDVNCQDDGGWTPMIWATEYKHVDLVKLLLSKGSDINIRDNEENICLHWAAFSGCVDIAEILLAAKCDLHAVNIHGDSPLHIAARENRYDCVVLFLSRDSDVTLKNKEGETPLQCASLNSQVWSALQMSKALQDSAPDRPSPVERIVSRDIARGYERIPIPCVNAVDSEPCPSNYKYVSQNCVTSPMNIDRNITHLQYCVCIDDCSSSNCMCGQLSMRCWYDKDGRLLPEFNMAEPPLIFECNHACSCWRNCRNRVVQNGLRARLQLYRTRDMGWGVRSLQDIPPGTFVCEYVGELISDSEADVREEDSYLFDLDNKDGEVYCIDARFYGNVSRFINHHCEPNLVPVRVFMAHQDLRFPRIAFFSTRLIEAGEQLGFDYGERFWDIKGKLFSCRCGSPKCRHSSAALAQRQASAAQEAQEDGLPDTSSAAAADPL
Experiment: Triple SILAC pull-down after UNC0638 treatment of 293T cells, DMSO/UNC0638 ratio of protein captured by 3×MBT;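 note: mass spectrometry (Q-Exactive) SILAC quantitation, DMSO/UNC0638 ratio computed after subtracting 3×MBTD355N mutant pull-down background, only proteins with at least twofold 3×MBT over mutant signal considered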
Type: cell-based
Parameters: cells were treated for 24 hours with UNC0638 at 2.5 μM or DMSO vehicle control; endogenous in cells; host or cells: HEK 293T
Details: average of UNC Light and UNC Heavy experiments

{"columns": ["molecule", "Relative to UNC0638 Average / log base 2"],
 "data": [
  ["HNRNPA3 (protein, UniProt P51991 1-378, looked up) Heterogeneous nuclear …: MEVKPPPGRPQPDSGRRRRRRGEEGHDPKEPEQLRKLFIGGLSFETTDDSLREHFEKWGTLTDCVVMRDPQTKRSRGFGFVTYSCVEEVDAAMCARPHKVDGRVVEPKRAVSREDSVKPGAHLTVKKIFVGGIKEDTEEYNLRDYFEKYGKIETIEVMEDRQSGKKRGFAFVTFDDHDTVDKIVVQKYHTINGHNCEVKKALSKQEMQSAGSQRGRGGGSGNFMGRGGNFGGGGGNFGRGGNFGGRGGYGGGGGGSRGSYGGGDGGYNGFGGDGGNYGGGPGYSSRGGYGGGGPGYGNQGGGYGGGGGYDGYNEGGNFGGGNYGGGGNYNDFGNYSGQQQSNYGPMKGGSFGGRSSGSPYGGGYGSGGGSGGYGSRRF", 0.18]
]}

This collection of values is drawn from patent US20140274782A1.
